For each record, write down the corresponding IC50.
Test system: B16 (melanoma) cells
assay-comment: MTT cytotoxicity assay, B16 cells
conditions: Mus musculus, B16, 72 h, read-out: IC50 (μM) B16, 72 h exposure, MTT, mean of three independent experiments
Numbers only, in µM.

Below, each entry is followed by its recorded IC50 result.
COc1cc(/C=C2\CN(Cc3ccccc3)C/C(=C\c3cc(OC)c(OC)c(OC)c3)C2=O)cc(OC)c1OC    2.4
COc1cc(/C=C2\CN(c3ccccc3)C/C(=C\c3ccc(O)c(OC)c3)C2=O)ccc1O    2.9
O=C1/C(=C/c2ccccc2)CN(Cc2ccccc2)C/C1=C\c1ccccc1    3.1
O=C1/C(=C/c2ccc([N+](=O)[O-])cc2)CNC/C1=C\c1ccc([N+](=O)[O-])cc1    15
Cc1ccc(/C=C2\CN(Cc3ccccc3)C/C(=C\c3ccc(C)cc3)C2=O)cc1    14
O=C1/C(=C/c2ccc([N+](=O)[O-])cc2)CN(Cc2ccccc2)C/C1=C\c1ccc([N+](=O)[O-])cc1    2.5

Looking up COc1cc(/C=C2\CN(Cc3ccccc3)C/C(=C\c3ccc(O)c(OC)c3)C2=O)ccc1O , I see its IC50 listed as 2

Data origin, for the record: patent US11964943B2
